Data origin, for the record: ChEMBL document CHEMBL4020770

experiment summary: Half life in human liver microsomes
Type: ADME, microsome
condition parameters: liver microsomes
assay endpoint: half-life

{"compound": "C[N+]1(CC2CC2)CC[C@]23c4c5ccc(O)c4O[C@H]2C(=O)CC[C@@]3(O)[C@H]1C5 (some centres not stated) [METHYLNALTREXONE]", "observed": "> 1.5 h"}
{"compound": "O=C1c2ccccc2C(=O)N1CCCCN1[C@@H]2CC[C@@H]1CC(c1cccc(O)c1)C2 (relative stereo; 21a)", "observed": "0.55 h"}
{"compound": "Oc1cccc(C2C[C@H]3CC[C@H](C2)N3CCCOc2ccccc2)c1 (relative stereo; 19a)", "observed": "0.417 h"}
{"compound": "NC(=O)c1cccc(C2C[C@H]3CC[C@H](C2)N3Cc2c(F)cccc2F)c1 (relative stereo; 26a)", "observed": "> 1.5 h"}
{"compound": "NC(=O)c1cccc(C2C[C@H]3CC[C@H](C2)N3CCCc2ccccc2)c1 (relative stereo; 24a)", "observed": "> 1.5 h"}
{"compound": "CC(C)(C)c1ccc(CN2[C@@H]3CC[C@@H]2CC(c2cccc(C(N)=O)c2)C3)cc1 (relative stereo; 28a)", "observed": "> 1.5 h"}
{"compound": "C[C@H]1CN(C[C@H](Cc2ccccc2)C(=O)NCC(=O)O)CC[C@@]1(C)c1cccc(O)c1", "observed": "> 1.5 h"}
